test system: GFP-ODC; experiment: Cell-based GFP-ODC AlphaLISA; set-up: species or system human; conditions: Homo sapiens, HEK-293T, read-out: IC50 of the AlphaLISA signal
pIC50: −log10 of the molar value.
reported-endpoint: pIC50

molecule: CCN(CC)CCCC(C)Nc1c2ccc(Cl)cc2nc2ccc(OC)cc12 (stereo not drawn)
reported-endpoint: pIC50
recorded-number: 5.32

molecule: CCN(CC)CCNc1ccc(CO)c2sc3ccccc3c(=O)c12
reported-endpoint: pIC50
recorded-number: 4.82

molecule: C#Cc1cccc(Nc2ncnc3cc(OCCOC)c(OCCOC)cc23)c1
reported-endpoint: pIC50
recorded-number: 5.27

###

assay: Cell viability, parallel CellTiter-Glo assay; assay type: cell-based, human; settings: human, HEK-293T cells stably expressing GFP-ODC

compound: CCN(CC)CCNc1ccc(CO)c2sc3ccccc3c(=O)c12 [Hycanthone]
CC50 / µM: 69.7
